system: SN12C renal; assay: NCI-60 one-dose screen, 48 h (100 = growth as untreated, 0 = no growth, -100 = all killed); conditions: 10 µM unless noted
This is part of a sample that, as a whole, favours compounds with a hit. Of some 83,000 tested, about 20% had one in any assay.
Returns: string. Value is True if measured growth is below 90%, and False if it is greater than or equal to it.

# smi, class.label
measured = [
    ("COc1cccc(Nc2nc(NCCO)c3ccccc3n2)c1", "True"),
    ("COc1ccc(C(=O)C2=CC(=O)C(=O)C2)cc1OC", "False"),
    ("COc1ccc(NS(=O)(=O)c2ccc(-c3cnc(C4CC4)o3)cc2)cc1", "True"),
]

Here's the next entry for you.
**Query** In the record for `Cc1nc2cc(Nc3nc(Nc4ccc(F)cc4)nc(-c4cccs4)n3)ccc2n1Cc1ccccc1` , is growth less than 90%?
**Result** True
